The following compounds are shown together with reported Activity values.
- targetOfAssay: Sphingosine kinase 2 (Homo sapiens) (UniProt Q9NRA0)
- Sequence (Q9NRA0 whole entry): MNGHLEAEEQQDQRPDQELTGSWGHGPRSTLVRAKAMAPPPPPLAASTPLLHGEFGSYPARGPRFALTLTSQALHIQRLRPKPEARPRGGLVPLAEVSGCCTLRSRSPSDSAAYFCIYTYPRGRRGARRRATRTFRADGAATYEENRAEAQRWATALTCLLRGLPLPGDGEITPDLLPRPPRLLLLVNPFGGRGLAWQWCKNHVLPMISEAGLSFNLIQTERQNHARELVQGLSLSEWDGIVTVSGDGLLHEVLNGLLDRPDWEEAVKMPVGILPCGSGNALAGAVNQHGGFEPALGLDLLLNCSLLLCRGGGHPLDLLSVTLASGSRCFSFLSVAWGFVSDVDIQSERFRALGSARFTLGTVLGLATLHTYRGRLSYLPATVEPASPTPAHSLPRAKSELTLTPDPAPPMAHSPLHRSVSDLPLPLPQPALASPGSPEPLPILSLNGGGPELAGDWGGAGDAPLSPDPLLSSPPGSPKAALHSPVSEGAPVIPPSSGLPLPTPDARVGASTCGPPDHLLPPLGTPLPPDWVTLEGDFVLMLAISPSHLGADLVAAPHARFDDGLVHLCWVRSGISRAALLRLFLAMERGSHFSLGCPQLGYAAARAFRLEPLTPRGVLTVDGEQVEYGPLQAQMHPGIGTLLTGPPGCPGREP
- method: Effect on rate of phosphorylation of human recombinant SPHK2 expressed in HEK293 cells
- Type: cell-based
Dear colleague, please return just the value in %, with no unit written.

CCCCCCCCCCCCC/C=C/[C@@H](O)[C@@H](N)CO	100

Incoming: # lookup: Activity of `CCCCCCCCc1ccc(CCC(N)(CO)CO)cc1`
Outgoing: 13

Incoming: Which Activity value belongs to `CCCCCCCCc1ccc([C@H]2C[C@H](CO)N[C@@H]2CO)cc1` ?
Outgoing: 55

###

Measured EC50, listed per entry.
- targetOfAssay: Sphingosine 1-phosphate receptor 4 (Homo sapiens, UniProt O95977)
- Sequence (O95977 whole entry): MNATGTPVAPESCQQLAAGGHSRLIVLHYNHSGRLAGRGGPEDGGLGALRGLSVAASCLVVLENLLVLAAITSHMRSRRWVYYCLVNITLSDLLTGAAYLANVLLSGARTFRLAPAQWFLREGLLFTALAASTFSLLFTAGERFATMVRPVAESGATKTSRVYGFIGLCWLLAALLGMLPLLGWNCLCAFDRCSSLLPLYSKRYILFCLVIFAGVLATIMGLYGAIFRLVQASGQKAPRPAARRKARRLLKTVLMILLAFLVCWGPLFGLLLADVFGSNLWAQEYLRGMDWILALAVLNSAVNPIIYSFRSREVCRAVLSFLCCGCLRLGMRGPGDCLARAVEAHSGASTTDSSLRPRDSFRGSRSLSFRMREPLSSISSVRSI
- method: Activity at human recombinant S1P4 receptor expressed in CHO cells assessed as increase in calcium release by FLIPR assay
Report the figure in nM without appending any unit label.

CCCCCCCCc1ccc([C@H]2C[C@H](CO)N[C@@H]2COP(=O)(O)O)cc1	347
CCCCCCCCCCCCC/C=C/[C@@H](O)[C@@H](N)COP(=O)(O)O	7.9
CCCCCCCCc1ccc([C@@H]2C[C@@H](COP(=O)(O)O)N[C@H]2CO)cc1	16.8
CCCCCCCCc1ccc([C@H]2C[C@H](COP(=O)(O)O)N[C@@H]2CO)cc1	7.4
CCCCCCCCc1ccc(CC[C@@](N)(CO)COP(=O)(O)O)cc1	18.6

Now let's try a different one.
Incoming: Record lookup: for Sphingosine 1-phosphate receptor 4 (Homo sapiens, UniProt O95977), what EC50 belongs to `CCCCCCCCc1ccc([C@@H]2C[C@@H](CO)N[C@H]2COP(=O)(O)O)cc1` ?
Outgoing: 33.1
